Measurement Protocol: photoluminescence quantum yield (fraction); solvent given as SMILES
Condition Parameters: in O=P(c1ccccc1)(c1ccccc1)c1ccccc1Oc1ccccc1P(=O)(c1ccccc1)c1ccccc1
Categories are assigned from the measured photoluminescence quantum yield using these intervals: low end: < 0.6; middle: ≥ 0.6 and < 0.7; high end: ≥ 0.7

Structure As Smiles	Label Class
CC1(C)c2ccccc2-c2cc3c4ccccc4n(-c4ccc(-c5nc(-c6ccccc6)nc(-c6ccccc6)n5)cc4)c3cc21	high end
c1ccc(-c2nc(-c3ccccc3)nc(-n3c4ccccc4c4cc(-n5c6ccccc6c6ccccc65)ccc43)n2)cc1	middle
Cc1cc(-n2c3ccccc3c3cc4c(cc32)C2c3ccccc3C4c3ccccc32)ccc1-c1nc(-c2ccccc2)nc(-c2ccccc2)n1	low end
CC(C)(C)c1ccc2c(c1)c1cc(C(C)(C)C)ccc1n2-c1cc[n+]2c(c1)-c1ccccc1O[B-]2(F)F	high end
CC(C)(C)c1ccc2c(c1)c1cc(C(C)(C)C)ccc1n2-c1cccc(-c2nc(-c3cccc(-n4c5ccc(C(C)(C)C)cc5c5cc(C(C)(C)C)ccc54)c3)nc(-c3cccc(P(=O)(c4ccccc4)c4ccccc4)c3)n2)c1	low end
CC1(C)c2ccccc2N(c2cc3c4ccccc4n4c5ccccc5c(c2)c34)c2ccccc21	high end
CC1(C)c2ccccc2N(c2cc[n+]3c(c2)-c2ccccc2O[B-]3(F)F)c2ccccc21	middle
Cc1ccccc1-c1nc(-c2ccccc2C)nc(-c2ccc(N3c4ccccc4C4(c5ccccc5-c5ccccc54)c4ccccc43)cc2C)n1	middle
CC1(C)c2ccccc2N(c2ccc3c(c2)Oc2ccccc2S3(=O)=O)c2ccccc21	high end
CC(C)(C)c1ccc2c(c1)c1cc(C(C)(C)C)ccc1n2-c1ccc(-c2nc(-c3ccc(P(=O)(c4ccccc4)c4ccccc4)cc3)nc(-c3ccc(P(=O)(c4ccccc4)c4ccccc4)cc3)n2)cc1	high end
c1ccc(-c2cc(-c3ccc(N4c5ccccc5C5(c6ccccc64)c4ccccc4N(c4ccc(-c6cc(-c7ccccc7)nc(-c7ccccc7)n6)cc4)c4ccccc45)cc3)nc(-c3ccccc3)n2)cc1	high end
CC1(C)c2ccccc2N(c2ccc(-c3nc4cccc5c4n3-c3ccccc3C5(C)C)cc2)c2ccccc21	low end

###

Measurement Protocol: photoluminescence quantum yield (fraction); solvent given as SMILES
Condition Parameters: in Cc1ccccc1
Parameter Measured: photoluminescence quantum yield

Structure As Smiles	Parameter Measured	Val
Cc1cc(C)c(C2=C3C=c4c(c5ccccc5c5ccccc45)=[N+]3[B-](F)(F)n3c2cc2c4ccccc4c4ccccc4c23)c(C)c1	photoluminescence quantum yield	0.51
c1ccc([B-]2(c3ccccc3)Oc3ccc4ccccc4c3-c3c4ccccc4nc[n+]32)cc1	photoluminescence quantum yield	0.25
CC(C)(C)c1ccc2c(c1)c1cc(C(C)(C)C)ccc1n2-c1cc(-n2c3ccc(C(C)(C)C)cc3c3cc(C(C)(C)C)ccc32)c(-n2c3ccc(C(C)(C)C)cc3c3cc(C(C)(C)C)ccc32)c(C#N)c1-n1c2ccc(C(C)(C)C)cc2c2cc(C(C)(C)C)ccc21	photoluminescence quantum yield	0.68
N#Cc1ccc(/C=C/c2c3ccccc3cc3ccccc23)cc1	photoluminescence quantum yield	0.23
CCCCCCc1ccc(-n2c3[n+](c4c5ccccc5c5ccccc5c42)[B-](C)(C)c2cc(N(c4ccccc4)c4ccccc4)ccc2-3)cc1	photoluminescence quantum yield	0.83
CCCC1=Cc2nc1ccc1[nH]c(cc1CCC)c1nc(c(OC)cc3[nH]c2cc3CCC)C(CCC)=C1	photoluminescence quantum yield	0.18
CC(C)c1cc(C(C)C)c(B2c3ccccc3Oc3cc(N4c5ccccc5C5(c6ccccc6-c6ccccc65)c5ccccc54)ccc32)c(C(C)C)c1	photoluminescence quantum yield	0.76
